Biological target: horseradish peroxidase (HRP) tagged delF508-CFTR (Homo sapiens, UniProt P13569, DEL508-508)
Construct: expressed in transfected cells
Sequence (P13569 with tags, fused parts or gaps DEL508-508): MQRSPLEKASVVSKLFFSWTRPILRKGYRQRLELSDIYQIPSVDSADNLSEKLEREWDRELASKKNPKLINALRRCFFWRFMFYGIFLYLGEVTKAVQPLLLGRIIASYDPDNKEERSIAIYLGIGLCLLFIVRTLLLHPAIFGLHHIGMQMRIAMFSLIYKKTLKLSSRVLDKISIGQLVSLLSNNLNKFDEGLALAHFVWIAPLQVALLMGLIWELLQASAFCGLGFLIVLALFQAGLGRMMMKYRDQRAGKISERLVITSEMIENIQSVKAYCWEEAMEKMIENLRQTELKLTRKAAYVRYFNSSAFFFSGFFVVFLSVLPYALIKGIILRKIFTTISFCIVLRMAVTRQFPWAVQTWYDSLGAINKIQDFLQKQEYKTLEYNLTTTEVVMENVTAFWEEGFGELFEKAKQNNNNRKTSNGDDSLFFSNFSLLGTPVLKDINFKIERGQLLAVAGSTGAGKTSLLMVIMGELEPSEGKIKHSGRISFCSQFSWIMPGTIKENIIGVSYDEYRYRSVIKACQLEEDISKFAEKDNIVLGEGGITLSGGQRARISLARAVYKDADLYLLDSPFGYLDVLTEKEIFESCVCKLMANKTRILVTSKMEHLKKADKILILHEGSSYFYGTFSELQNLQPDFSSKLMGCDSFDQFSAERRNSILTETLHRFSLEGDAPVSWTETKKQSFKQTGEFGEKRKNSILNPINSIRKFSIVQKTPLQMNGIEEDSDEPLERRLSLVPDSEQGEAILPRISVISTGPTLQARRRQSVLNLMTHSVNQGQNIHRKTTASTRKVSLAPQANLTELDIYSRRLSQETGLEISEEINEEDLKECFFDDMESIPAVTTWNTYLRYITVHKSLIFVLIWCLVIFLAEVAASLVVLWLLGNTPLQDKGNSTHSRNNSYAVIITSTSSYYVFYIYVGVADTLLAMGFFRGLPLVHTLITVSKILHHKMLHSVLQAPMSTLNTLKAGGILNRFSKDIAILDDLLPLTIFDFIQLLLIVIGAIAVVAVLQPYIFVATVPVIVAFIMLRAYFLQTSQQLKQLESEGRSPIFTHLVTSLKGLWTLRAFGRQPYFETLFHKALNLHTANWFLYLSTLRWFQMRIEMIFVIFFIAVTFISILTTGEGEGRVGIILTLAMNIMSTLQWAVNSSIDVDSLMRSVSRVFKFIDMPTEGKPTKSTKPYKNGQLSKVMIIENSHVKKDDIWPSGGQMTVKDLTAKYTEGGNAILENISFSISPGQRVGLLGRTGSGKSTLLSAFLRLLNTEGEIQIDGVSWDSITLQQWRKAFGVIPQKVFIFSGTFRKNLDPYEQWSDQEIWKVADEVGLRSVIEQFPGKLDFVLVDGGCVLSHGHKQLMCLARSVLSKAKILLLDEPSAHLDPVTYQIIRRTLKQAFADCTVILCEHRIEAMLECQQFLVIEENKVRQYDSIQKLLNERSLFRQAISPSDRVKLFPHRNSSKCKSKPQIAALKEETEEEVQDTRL
Assay: Measurement of delF508-CFTR-HRP surface expression in CFBE41o- cells;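 note: percent efficacy relative to reference corrector lumacaftor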
Type: cell-based
Details: delF508-CFTR-HRP surface expression, CFBE41o- cells; read-out: DelF508-CFTR-HRP Amax %
Counter-ions that a name gives are not always drawn.
Experimental Readout: Emax (%)

compound=Cc1cccc(C)c1-c1nc(NS(=O)(=O)c2cccc(N3CCn4ccnc4C3)n2)ccc1Cl experimental_readout=Emax measurement=692
compound=Cc1ccc(F)cc1-c1nc(NS(=O)(=O)c2ccnc(N3CC(O)C3)c2)ccc1Cl experimental_readout=Emax measurement=310
compound="CN[C@@H]1CCN(c2cccc(S(=O)(=O)Nc3ccc(C(F)(F)F)c(-c4ccccc4C)n3)n2)C1 [Example 121, Hydrochloride]" experimental_readout=Emax measurement=308
compound=Cc1c(C#N)cccc1-c1nc(NS(=O)(=O)c2ccnc(N)c2)ccc1Cl experimental_readout=Emax measurement=93.8
